testTarget: T1, human DLL4 expressed on cells (CHO-hDLL4; HEK293-hDLL4) (human, UniProt Q9NR61 27-685)
T1 construct: full length human DLL4 overexpressed on CHO cells (FMAT, FACS) or HEK293 cells (reporter assay)
assaySummary: FACS; summary table, column taken as hDLL4
quantityKind: pEC50
# pEC50 = -log10(concentration in molar units)

Use these answered entries as a reference point.
binder	pEC50
DLLBII133A09 (VHH, not shown: small tags and cut ends) VHH: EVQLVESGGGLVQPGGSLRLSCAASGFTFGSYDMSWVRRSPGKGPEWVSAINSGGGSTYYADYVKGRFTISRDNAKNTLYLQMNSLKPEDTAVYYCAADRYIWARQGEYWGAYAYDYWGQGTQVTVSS	8.14
DLLBII015 (VHH, not shown: small tags and cut ends) VHH: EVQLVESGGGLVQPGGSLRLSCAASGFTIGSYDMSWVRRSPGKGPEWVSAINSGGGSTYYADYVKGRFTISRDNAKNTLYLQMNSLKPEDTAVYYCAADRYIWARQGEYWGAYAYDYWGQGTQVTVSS	7.83

Kindly consider the entry below.
// sample DLLBII129D08 (VHH, not shown: small tags and cut ends) VHH: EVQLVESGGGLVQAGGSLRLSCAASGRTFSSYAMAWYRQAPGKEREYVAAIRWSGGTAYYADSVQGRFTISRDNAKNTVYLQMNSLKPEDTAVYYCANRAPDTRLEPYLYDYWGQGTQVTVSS , its pEC50 was 8.02
